biological target: purified recombinant human Aggrecanase-1 (rAgg1) (Homo sapiens); test: In vitro fluorescence screen for Aggrecanase-1 inhibitors; format: biochemical; conditions: Table 3; read-out: Agg1 IC50
Sequence (O75173 213-837): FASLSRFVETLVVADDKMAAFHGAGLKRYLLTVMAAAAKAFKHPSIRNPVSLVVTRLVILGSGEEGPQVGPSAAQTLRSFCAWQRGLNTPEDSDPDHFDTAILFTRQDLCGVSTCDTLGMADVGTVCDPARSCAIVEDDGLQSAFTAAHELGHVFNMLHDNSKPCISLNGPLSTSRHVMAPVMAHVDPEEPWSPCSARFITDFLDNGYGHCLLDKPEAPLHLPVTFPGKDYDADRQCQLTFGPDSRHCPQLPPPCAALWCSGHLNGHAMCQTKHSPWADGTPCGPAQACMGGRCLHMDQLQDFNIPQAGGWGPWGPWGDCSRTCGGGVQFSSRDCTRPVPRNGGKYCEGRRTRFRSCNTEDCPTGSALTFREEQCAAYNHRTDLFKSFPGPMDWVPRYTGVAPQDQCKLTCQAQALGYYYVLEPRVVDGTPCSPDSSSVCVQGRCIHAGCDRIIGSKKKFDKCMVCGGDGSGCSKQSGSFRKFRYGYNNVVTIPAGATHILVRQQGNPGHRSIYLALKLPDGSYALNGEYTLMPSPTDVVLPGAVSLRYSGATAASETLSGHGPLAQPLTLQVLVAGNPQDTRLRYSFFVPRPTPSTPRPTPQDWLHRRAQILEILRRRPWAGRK
MEASUREMENT LABEL: IC50

smiles_record=CC(C)(Cc1ccc(Cl)cc1)NC(=O)[C@H](CCC(=O)O)NC(=O)c1ccc(-c2ccccc2)s1 measured="< 30 nM"
smiles_record=CC(C)(Cc1ccccc1)NC(=O)[C@H](CCC(=O)O)NC(=O)c1ccc(-c2ccc(Cl)s2)nc1 measured="20 to 70 nM"
smiles_record=CC(C)(Cc1ccc(F)cc1)NC(=O)[C@H](CCC(=O)O)NC(=O)c1ccc(-c2ccc(Cl)cc2)s1 measured="< 30 nM"
smiles_record=CC(C)(Cc1ccc(Cl)cc1)NC(=O)[C@H](CCC(=O)O)NC(=O)c1ccc(-c2cc(F)ccc2F)cc1 measured="110 nM"

Qu. Give recorded IC50 with purified recombinant human Aggrecanase-1 (rAgg1) (Homo sapiens) for the following compound: `CC(C)(Cc1ccc(F)cc1)NC(=O)[C@H](CCC(=O)O)NC(=O)c1ccc(Br)cc1`
Ans. 1040 nM

Qu. Give recorded IC50 with purified recombinant human Aggrecanase-1 (rAgg1) (Homo sapiens) for the following compound: `CC(C)(Cc1ccc(F)cc1)NC(=O)[C@H](CCC(=O)O)NC(=O)c1ccc(-c2cccs2)cc1`
Ans. < 30 nM

Qu. Give recorded IC50 with purified recombinant human Aggrecanase-1 (rAgg1) (Homo sapiens) for the following compound: `CC(C)(Cc1ccc(F)cc1)NC(=O)[C@H](CCC(=O)O)NC(=O)c1ccc(-c2ccc(Cl)s2)cc1`
Ans. < 30 nM
